Hey, just so you know, these numbers are from paper PMC8140157.

Target: T1, RTEL1∆762 (human, UniProt Q9NZ71-6 762-1300)
T1 sequence: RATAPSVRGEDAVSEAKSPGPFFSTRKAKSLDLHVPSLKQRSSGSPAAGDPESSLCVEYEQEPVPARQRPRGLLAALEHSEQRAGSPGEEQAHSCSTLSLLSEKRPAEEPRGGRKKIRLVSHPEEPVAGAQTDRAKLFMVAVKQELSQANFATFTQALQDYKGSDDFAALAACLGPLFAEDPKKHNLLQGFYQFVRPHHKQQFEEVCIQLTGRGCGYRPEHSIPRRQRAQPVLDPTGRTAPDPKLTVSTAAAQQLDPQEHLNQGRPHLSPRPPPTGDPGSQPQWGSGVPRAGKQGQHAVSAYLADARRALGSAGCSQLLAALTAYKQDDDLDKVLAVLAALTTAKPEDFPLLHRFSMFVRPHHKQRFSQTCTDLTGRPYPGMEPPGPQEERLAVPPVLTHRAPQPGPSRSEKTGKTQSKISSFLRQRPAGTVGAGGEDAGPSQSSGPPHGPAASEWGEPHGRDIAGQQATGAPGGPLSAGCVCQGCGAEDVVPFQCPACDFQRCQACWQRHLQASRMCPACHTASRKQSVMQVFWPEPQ
Assay: fluorescence anisotropy; 20 mM Tris pH 7.5, 50 mM KCl, 0.5 mM TCEP, 0.5 mM MgCl2, 10% glycerol, 0.1% IGEPAL, room temperature 30 min; oligos refolded in 10 mM Tris pH 7.5, 100 mM KCl; EMSA legends give 150 or 300 mM KCl
Conditions: protein: recombinant; tags: 6xHis; chain copies: 2; label: 5' fluorescein; unstructured
attribute.measured: Kd (nM)
Answer in nM, number only, no unit symbol.

Q: Dear colleague, please send me the reported Kd for AUUAUUAUUAUUAUUAUUAUUAUU (ssRNA) [AU-rich 24mer] when you can.
Ans: 42
